# assayed-system: recombinant Human Phosphodiesterase B2 (PDE4B2) (Homo sapiens)
# measurement-notes: Human Phosphodiesterase B2 Radiometric Assay (yttrium silicate SPA beads, [3H]cyclic AMP)
# Type: biochemical
# measurement-setup: recombinant human PDE4B2, radiometric SPA assay, 8 nM [3H]cyclic AMP; read-out: PDE4B2 pIC50 (converted)
quantity-measured: IC50 (pM)

structure-notation | quantity-measured | value-reported
Cc1cc(C(=O)N[C@H]2CC[C@@H](n3c(=O)c4cc(F)cnc4n(-c4cccc(-c5ccc(O)cc5CN(C)C)c4)c3=O)CC2)nn1C | IC50 | 25.1

A. CNC1CCN(Cc2ccc(-c3cccc(-n4c(=O)n([C@H]5CC[C@@H](NC(=O)c6cn7cc(F)ccc7n6)CC5)c(=O)c5cc(F)cnc54)c3)cc2)CC1
B. O=c1c2cc(F)cnc2n(-c2cccc(-c3ccc(O)cc3CN3CCOCC3)c2)c(=O)n1[C@H]1CC[C@@H](NCCCc2ccccc2)CC1
Compare A and B by numeric IC50 and name the larger one. Please reply using the label of the selected record. B
(B: 1260 pM, A: 20 pM)

----------
# assayed-system: recombinant Human Phosphodiesterase B2 (PDE4B2) (Homo sapiens)
# measurement-notes: Human Phosphodiesterase B2 Radiometric Assay (yttrium silicate SPA beads, [3H]cyclic AMP)
# Assay type: biochemical
# measurement-setup: recombinant human PDE4B2, radiometric SPA assay, 8 nM [3H]cyclic AMP; read-out: PDE4B2 pIC50 (converted)
quantity-measured: IC50 (pM)

Consider the reported IC50 for these compounds:
structure-notation | measurement-units | IC50
Cc1oncc1C(=O)N[C@H]1CC[C@@H](n2c(=O)c3cc(F)cnc3n(-c3cccc(-c4ccc(CN5CCN(C(C)C)CC5)cc4)c3)c2=O)CC1 | pM | 501
Cc1cc(C(=O)N[C@H]2CC[C@@H](n3c(=O)c4cc(F)cnc4n(-c4cccc(-c5ccc(CN6CCN(C(C)C)CC6)cc5)c4)c3=O)CC2)nn1C | pM | 7.94

P. CN(Cc1ccc(-c2cccc(-n3c(=O)n([C@H]4CC[C@@H](NC(=O)c5cn6c(n5)CCCC6)CC4)c(=O)c4cc(F)cnc43)c2)cc1)C(C)(C)C
Q. O=C(N[C@H]1CC[C@@H](n2c(=O)c3cc(F)cnc3n(-c3cccc(-c4ccc(CN5CCNCC5)cc4O)c3)c2=O)CC1)c1cn2cc(F)ccc2n1
R. CN1CCCN(Cc2ccc(-c3cccc(-n4c(=O)n([C@H]5CC[C@@H](NC(=O)c6cnc7ccccc7n6)CC5)c(=O)c5cc(F)cnc54)c3)cc2)CC1
S. O=C(N[C@H]1CC[C@@H](n2c(=O)c3cc(F)cnc3n(-c3ccc(Cc4ccccc4)cc3)c2=O)CC1)c1cn2cc(F)ccc2n1
I would appreciate it if you could sort these 4 compounds by IC50, starting from the smallest number. In plain terms: list the labels in the order you were asked to. R, P, Q, S
(R: 12.6 pM, P: 31.6 pM, Q: 63.1 pM, S: 6310 pM)

----------
# assayed-system: recombinant Human Phosphodiesterase B2 (PDE4B2) (Homo sapiens, UniProt Q07343)
# Sequence (Q07343 1-564 isoform Q07343-2): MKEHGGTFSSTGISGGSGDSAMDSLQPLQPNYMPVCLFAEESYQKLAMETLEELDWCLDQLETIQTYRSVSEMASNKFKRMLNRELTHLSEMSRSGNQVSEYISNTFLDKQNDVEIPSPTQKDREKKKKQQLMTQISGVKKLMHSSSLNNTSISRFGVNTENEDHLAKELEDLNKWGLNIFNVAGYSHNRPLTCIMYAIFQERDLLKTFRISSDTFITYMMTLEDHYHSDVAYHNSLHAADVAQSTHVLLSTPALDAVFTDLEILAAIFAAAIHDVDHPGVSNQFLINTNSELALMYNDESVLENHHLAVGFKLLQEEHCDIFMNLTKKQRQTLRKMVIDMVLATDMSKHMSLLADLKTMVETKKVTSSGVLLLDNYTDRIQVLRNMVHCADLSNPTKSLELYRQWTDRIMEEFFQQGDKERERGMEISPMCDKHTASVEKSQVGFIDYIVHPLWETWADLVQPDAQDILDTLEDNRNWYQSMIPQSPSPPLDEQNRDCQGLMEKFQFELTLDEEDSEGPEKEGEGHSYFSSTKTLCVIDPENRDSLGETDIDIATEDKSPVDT
# measurement-notes: Human Phosphodiesterase B2 Radiometric Assay (yttrium silicate SPA beads, [3H]cyclic AMP)
# Format: biochemical
# measurement-setup: recombinant human PDE4B2, radiometric SPA assay, 8 nM [3H]cyclic AMP; read-out: PDE4B2 pIC50 (converted)
quantity-measured: IC50 (nM)

structure-notation | measurement-units | value-reported
CN(C)CCOc1cc(F)ccc1-c1cccc(-n2c(=O)n([C@H]3CC[C@@H](N(CCN(C)C)C(=O)c4cn5cc(F)ccc5n4)CC3)c(=O)c3cc(F)cnc32)c1 | nM | 6.31

A. O=CN1CCCN(Cc2cc(O)ccc2-c2cccc(-n3c(=O)n([C@H]4CC[C@@H](NCc5cn6cc(F)ccc6n5)CC4)c(=O)c4cc(F)cnc43)c2)CC1
B. O=c1c2cc(F)cnc2n(-c2cccc(-c3ccccc3)c2)c(=O)n1[C@H]1CC[C@@H](NCCO)CC1
I need your help: which of the pair A , B has higher IC50? Lab note: record the label of whichever item you select. B

----------
# assayed-system: recombinant Human Phosphodiesterase B2 (PDE4B2) (Homo sapiens, UniProt Q07343)
# measurement-notes: Human Phosphodiesterase B2 Radiometric Assay (yttrium silicate SPA beads, [3H]cyclic AMP)
# Format: biochemical
# measurement-setup: recombinant human PDE4B2, radiometric SPA assay, 8 nM [3H]cyclic AMP; read-out: PDE4B2 pIC50 (converted)
# Procedure: Human Phosphodiesterase B2 Radiometric Assay The assay uses recombinant Human Phosphodiesterase B2 (PDE4B2) produced in house (PrAZL0163), stored at −20° C. […] Bound [3H]cyclic AMP was measured using a Topcount NXT (Packard Bioscience, UK). pIC50 values (presented in Table 15) were determined using Xlfit3 curve fitting, using model 205.
quantity-measured: IC50 (nM)

P. C[C@@H](CO)N(C)Cc1cc(O)ccc1-c1cccc(-n2c(=O)n([C@H]3CC[C@@H](NCc4cn5cc(F)ccc5n4)CC3)c(=O)c3cc(F)cnc32)c1 [Example 324]
Q. CC(C)N1CCN(Cc2ccc(-c3cccc(-n4c(=O)n([C@H]5CC[C@@H](NC(=O)c6ccsc6)CC5)c(=O)c5cc(F)cnc54)c3)cc2)CC1 [Example 245]
Could you point out whether the larger IC50 belongs to P or to Q ? # respond with the chosen item's label P

----------
# assayed-system: recombinant Human Phosphodiesterase B2 (PDE4B2) (Homo sapiens)
# measurement-notes: Human Phosphodiesterase B2 Radiometric Assay (yttrium silicate SPA beads, [3H]cyclic AMP)
# Assay type: biochemical
# measurement-setup: recombinant human PDE4B2, radiometric SPA assay, 8 nM [3H]cyclic AMP; read-out: PDE4B2 pIC50 (converted)
quantity-measured: IC50 (pM)

// below: answered molecules
molecule | assayed-system | quantity-measured | measurement-units | value-reported
CC(C)C(=O)N[C@H]1CC[C@@H](n2c(=O)c3cc(F)cnc3n(-c3cccc(-c4ccc(CN5CCN(C(C)C)CC5)cc4)c3)c2=O)CC1 [Example 238] | recombinant Human Phosphodiesterase B2 (PDE4B2) (Homo sapiens) | IC50 | pM | 200
O=C(N[C@H]1CC[C@@H](n2c(=O)c3cc(F)cnc3n(-c3cccc(-c4ccccn4)c3)c2=O)CC1)c1cn2cc(F)ccc2n1 [Example 55] | recombinant Human Phosphodiesterase B2 (PDE4B2) (Homo sapiens) | IC50 | pM | 100
Cc1ccc(-c2cccc(-n3c(=O)n([C@H]4CC[C@@H](N)CC4)c(=O)c4cc(F)cnc43)c2)cc1 [Example 47] | recombinant Human Phosphodiesterase B2 (PDE4B2) (Homo sapiens) | IC50 | pM | 2000
Cc1cccc(C(=O)N[C@H]2CC[C@@H](n3c(=O)c4cc(F)cnc4n(-c4cccc(-c5ccc(CN6CCN(C(C)C)CC6)cc5)c4)c3=O)CC2)n1 [Example 242] | recombinant Human Phosphodiesterase B2 (PDE4B2) (Homo sapiens) | IC50 | pM | 6.31
O=c1c2cc(F)cnc2n(-c2cccc(-c3ccc(O)cc3CN3CCOCC3)c2)c(=O)n1[C@H]1CC[C@@H](NCc2ncc3ccccn23)CC1 [Example 374] | recombinant Human Phosphodiesterase B2 (PDE4B2) (Homo sapiens) | IC50 | pM | 63.1
O=C(N[C@H]1CC[C@@H](n2c(=O)c3cc(F)cnc3n(-c3cccc(-c4ccc(F)cc4OCCN4CCNCC4)c3)c2=O)CC1)c1cn2cc(F)ccc2n1 [Example 85] | recombinant Human Phosphodiesterase B2 (PDE4B2) (Homo sapiens) | IC50 | pM | 316
O=C(N[C@H]1CC[C@@H](n2c(=O)c3cc(F)cnc3n(-c3cccc(-c4ccc(CCCN5CCNCC5)cc4)c3)c2=O)CC1)c1cn2cc(F)ccc2n1 [Example 97] | recombinant Human Phosphodiesterase B2 (PDE4B2) (Homo sapiens) | IC50 | pM | 6.31
Cc1cnc(C(=O)N[C@H]2CC[C@@H](n3c(=O)c4cc(F)cnc4n(-c4cccc(-c5ccc(CN6CCN(C7CCCC7)CC6)cc5)c4)c3=O)CC2)cn1 [Example 288] | recombinant Human Phosphodiesterase B2 (PDE4B2) (Homo sapiens) | IC50 | pM | 50.1
C[C@@H](O)CN(C)Cc1cc(O)ccc1-c1cccc(-n2c(=O)n([C@H]3CC[C@@H](NCc4cn5cc(F)ccc5n4)CC3)c(=O)c3cc(F)cnc32)c1 [Example 320] | recombinant Human Phosphodiesterase B2 (PDE4B2) (Homo sapiens) | IC50 | pM | 200
C[C@@H]1CN(Cc2cc(O)ccc2-c2cccc(-n3c(=O)n([C@H]4CC[C@@H](NCc5cn6cc(F)ccc6n5)CC4)c(=O)c4cc(F)cnc43)c2)C[C@H](C)O1 [Example 256] | recombinant Human Phosphodiesterase B2 (PDE4B2) (Homo sapiens) | IC50 | pM | 15.8

1. O=C(N[C@H]1CC[C@@H](n2c(=O)c3cc(F)cnc3n(-c3cccc(-c4ccc(CN5CCC(N6CCCCC6)CC5)cc4)c3)c2=O)CC1)c1cn2c(n1)CCCC2 [Example 223]
2. Cc1cc(C)n2nc(C(=O)N[C@H]3CC[C@@H](n4c(=O)c5cc(F)cnc5n(-c5cccc(-c6ccc(CN7CCC(N8CCCCC8)CC7)cc6)c5)c4=O)CC3)cc2n1 [Example 362]
Param metric = IC50; output whichever of 1 , 2 has the minimum value. The response must carry the label of the picked entry. 1

A. CN(C)[C@H]1CC[C@@H](n2c(=O)c3cc(F)cnc3n(-c3cccc(-c4ccccc4)c3)c2=O)CC1 [Example 66]
B. O=c1c2cc(F)cnc2n(-c2cccc(-c3ccccc3)c2)c(=O)n1[C@@H]1CCNC1 [Example 107]
C. O=C(N[C@H]1CC[C@@H](n2c(=O)c3cc(F)cnc3n(-c3cccc(-c4ccc(O)cc4)c3)c2=O)CC1)c1cn2cc(F)ccc2n1 [Example 22]
D. Cc1ccccc1-c1cccc(-n2c(=O)n([C@H]3CC[C@@H](N)CC3)c(=O)c3cc(F)cnc32)c1 [Example 52]
Sort entries by IC50 from minimum to maximum value. Write the labels, ordered according to the request. C, D, A, B
(C: 25.1 pM, D: 2510 pM, A: 63100 pM, B: 100000 pM)

I. CC(C)(C)OC(=O)N1CCN(CC(=O)N[C@H]2CC[C@@H](n3c(=O)c4cc(F)cnc4n(-c4cccc(-c5ccccc5)c4)c3=O)CC2)CC1 [Example 105]
II. O=C(NCc1ccccc1)c1cccc(-n2c(=O)n([C@H]3CC[C@@H](NC(=O)c4cn5cc(F)ccc5n4)CC3)c(=O)c3cc(F)cnc32)c1 [Example 92]
III. O=C(N[C@H]1CC[C@@H](n2c(=O)c3cc(F)cnc3n(-c3cccc(C#Cc4cccnc4)c3)c2=O)CC1)c1cn2ccccc2n1 [Example 6]
IV. Cc1cccc2nc(C(=O)N[C@H]3CC[C@@H](n4c(=O)c5cc(F)cnc5n(-c5cccc(-c6ccc(CN7CCNCC7)cc6)c5)c4=O)CC3)cn12 [Example 111]
Form: Sort by [IC50] Order [ ascending ] Give your ranking as a list of the labels in the requested order. III, IV, I, II
(III: 7.94 pM, IV: 12.6 pM, I: 25.1 pM, II: 631 pM)

A. Cc1cccc(C(=O)N[C@H]2CC[C@@H](n3c(=O)c4cc(F)cnc4n(-c4cccc(-c5ccc(CN6C[C@@H](C)N[C@@H](C)C6)cc5)c4)c3=O)CC2)n1 [Example 290]
B. Cc1nc2ccccn2c1CN[C@H]1CC[C@@H](n2c(=O)c3cc(F)cnc3n(-c3cccc(-c4ccc(O)cc4CN4CCOCC4)c3)c2=O)CC1 [Example 370]
Pick one, A or B : lowest reported IC50. // output: label of the selected item A

From: patent US20100204203A1
